experiment: Single dose escalation and multiple dosing pharmacokinetic study of LipoCol Forte; settings: human, plasma, oral, 2 LipoCol Forte capsules, T1/2, healthy subjects, fed, single dose two LipoCol Forte capsules; mean ± SD, n = 14
measure: half-life (h)

{"molecule": "CC[C@H](C)C(=O)O[C@H]1C[C@@H](C)C=C2C=C[C@H](C)[C@H](CC[C@@H](O)C[C@@H](O)CC(=O)O)[C@H]21", "unit spec": "h", "half-life": 2.07}
{"molecule": "CC[C@H](C)C(=O)O[C@H]1C[C@@H](C)C=C2C=C[C@H](C)[C@H](CC[C@@H]3C[C@@H](O)CC(=O)O3)[C@H]21 [Pure lovastatin, lovastatin, reference compound]", "unit spec": "h", "half-life": 2.36}

Cited source: paper PMC3513969
